# testedOn: Potassium-transporting ATPase (Rattus norvegicus, UniProt P09626)
# Sequence (P09626 whole entry): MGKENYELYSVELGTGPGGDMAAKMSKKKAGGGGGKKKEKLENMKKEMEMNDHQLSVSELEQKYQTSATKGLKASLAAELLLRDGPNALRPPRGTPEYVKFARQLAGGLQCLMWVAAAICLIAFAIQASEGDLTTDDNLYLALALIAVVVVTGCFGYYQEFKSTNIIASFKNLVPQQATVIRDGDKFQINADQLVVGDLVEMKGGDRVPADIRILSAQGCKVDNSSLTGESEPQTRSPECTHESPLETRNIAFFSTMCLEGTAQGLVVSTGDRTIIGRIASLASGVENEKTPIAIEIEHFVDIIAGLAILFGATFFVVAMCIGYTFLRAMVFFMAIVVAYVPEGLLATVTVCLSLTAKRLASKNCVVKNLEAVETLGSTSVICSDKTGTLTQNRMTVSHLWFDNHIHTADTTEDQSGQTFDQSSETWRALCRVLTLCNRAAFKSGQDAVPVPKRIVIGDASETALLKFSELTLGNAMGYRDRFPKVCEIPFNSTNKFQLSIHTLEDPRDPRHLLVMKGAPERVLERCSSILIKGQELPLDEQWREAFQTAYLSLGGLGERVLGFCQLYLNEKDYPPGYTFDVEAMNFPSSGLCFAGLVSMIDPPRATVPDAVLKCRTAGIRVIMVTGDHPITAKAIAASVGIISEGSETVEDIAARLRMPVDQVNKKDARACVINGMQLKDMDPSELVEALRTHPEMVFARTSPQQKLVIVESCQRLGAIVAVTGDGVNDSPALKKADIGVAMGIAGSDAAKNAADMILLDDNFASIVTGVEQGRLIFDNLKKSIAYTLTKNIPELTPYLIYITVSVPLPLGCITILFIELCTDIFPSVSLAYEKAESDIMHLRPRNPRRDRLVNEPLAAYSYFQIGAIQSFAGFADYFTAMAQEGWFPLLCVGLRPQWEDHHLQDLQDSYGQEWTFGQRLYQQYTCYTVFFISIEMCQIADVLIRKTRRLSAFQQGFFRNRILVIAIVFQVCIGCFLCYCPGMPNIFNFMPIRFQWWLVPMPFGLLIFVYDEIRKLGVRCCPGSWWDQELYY
# Sequence (P18598 whole entry, further chain): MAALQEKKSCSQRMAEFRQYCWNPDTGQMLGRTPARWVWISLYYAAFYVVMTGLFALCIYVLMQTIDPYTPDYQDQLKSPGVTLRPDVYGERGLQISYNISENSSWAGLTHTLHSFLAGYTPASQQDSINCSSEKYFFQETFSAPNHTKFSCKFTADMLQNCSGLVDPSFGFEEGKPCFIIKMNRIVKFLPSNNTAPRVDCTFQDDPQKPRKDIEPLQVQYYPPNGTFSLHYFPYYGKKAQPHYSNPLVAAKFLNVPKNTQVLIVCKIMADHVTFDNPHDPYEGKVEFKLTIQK
# assayMethodText: Inhibition of rat isolated gastric (H(+)/K(+))-ATPase.
# Format: tissue-based, Stomach
metricName: IC50 (µM)

{"columns": ["lineNotation", "number"],
 "data": [
  ["COc1cccc2c1nc(C)c1ccn(-c3ccccc3C)c12", 0.64],
  ["Cc1ccccc1-n1ccc2c(NCCCCO)nc3c(C)cccc3c21", 0.22],
  ["COc1cccc2c3c(c(NCCO)nc12)CCN3c1ccccc1C", 0.28],
  ["CNC(=O)Nc1nc2c(C)cccc2c2c1CCN2c1ccccc1C", 4.97],
  ["COc1ccccc1N1CCc2cnc3c(OC)cccc3c21", 1.29],
  ["Cc1ccccc1N1CCc2c(NC(N)=O)nc3c(C)cccc3c21", 1.99],
  ["CNc1nc2c(C)cccc2c2c1CCN2c1ccc(OC)cc1C", 0.28],
  ["Cc1ccccc1N1CCc2c(N(C)C)nc3c(C)cccc3c21", 1.03]
]}

Hello, the source for this data is ChEMBL document CHEMBL1126042, in case you need it.
